Molecular target: recombinantly expressed His-tagged protein corresponding to amino acids 575-869 of human Tyk2 (Homo sapiens)
Sequence (P29597 with tags, fused parts or gaps): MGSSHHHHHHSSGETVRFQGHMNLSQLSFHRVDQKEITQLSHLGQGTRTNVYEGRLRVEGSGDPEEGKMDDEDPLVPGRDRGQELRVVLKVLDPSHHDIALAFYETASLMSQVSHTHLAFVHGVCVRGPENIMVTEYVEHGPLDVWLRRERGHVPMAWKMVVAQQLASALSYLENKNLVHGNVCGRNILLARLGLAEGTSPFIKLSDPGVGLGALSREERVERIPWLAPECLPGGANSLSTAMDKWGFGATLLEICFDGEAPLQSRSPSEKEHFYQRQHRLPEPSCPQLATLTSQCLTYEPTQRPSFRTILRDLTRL
Assay: Probe displacement assay (scintillation proximity, radiolabeled probe)
Details: 2.5 nM Tyk2 (575-869), 40 nM [3H] probe, 30 minutes at room temperature
pEC50: −log10 of the molar value.
Readout Name: pEC50

Use these answered entries as a reference point.
compound="CNC(=O)c1cnc(NC(=O)C2CC2)cc1Nc1cccc(-c2ccnn2C)c1OC [Example 33]" readout_name=pEC50 assay_value=8.27
compound="CNC(=O)c1cnc(NC(C)=O)cc1Nc1ccccc1S(C)(=O)=O [Example 2]" readout_name=pEC50 assay_value=6.37

I: CNC(=O)c1cnc(NC(=O)C2CC2)cc1Nc1cccc(-c2cnn(C)c2)c1OC [Example 42]
II: [2H]C([2H])([2H])NC(=O)c1cnc(NC(=O)C2CC2)cc1Nc1cccc(-c2ccn(CC(F)F)n2)c1OC [Example 36]
## Task Task for the reader: decide whether I or II has the larger pEC50. Could you answer with the label of the item you picked?
## Result II
